Target: M4 muscarinic receptor (Homo sapiens)
Construct: expressed in transfected cells; host or cells: CHO (M4-CHO)
Sequence (P08173 whole entry): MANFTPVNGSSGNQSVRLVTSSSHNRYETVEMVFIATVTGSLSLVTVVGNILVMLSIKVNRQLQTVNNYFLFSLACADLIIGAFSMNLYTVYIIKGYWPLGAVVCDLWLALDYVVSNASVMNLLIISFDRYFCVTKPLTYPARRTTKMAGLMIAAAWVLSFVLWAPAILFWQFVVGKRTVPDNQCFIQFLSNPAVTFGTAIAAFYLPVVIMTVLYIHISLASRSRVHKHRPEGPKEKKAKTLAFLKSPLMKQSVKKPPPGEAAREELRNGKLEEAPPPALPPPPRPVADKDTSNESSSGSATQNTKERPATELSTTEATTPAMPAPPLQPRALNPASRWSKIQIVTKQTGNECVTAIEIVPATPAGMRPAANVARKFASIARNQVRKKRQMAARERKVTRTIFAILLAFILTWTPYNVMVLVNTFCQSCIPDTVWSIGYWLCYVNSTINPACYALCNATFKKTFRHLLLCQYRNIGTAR
Experiment: Functional mobilization of intracellular calcium (FLIPR) in CHO cells expressing M4
Type: cell-based
Details: CHO; 100% efficacy = maximum response obtained with the Carbachol control
For each of the compounds below, state its Emax.

GET /value?item= CCn1ccc(C(=O)N[C@H]2CCC3(CCN(CCC(C)(C)C)CC3)c3ccccc32)n1 &field=Emax returns 25 to 100%

GET /value?item= C#CCNC(=O)CN1CCC2(CC1)C[C@H](NC(C)=O)c1ccccc12 &field=Emax returns < 25%

GET /value?item= CC(C)(C)CCN1CCC2(CC[C@H](NC(=O)C3CCOCC3)c3ccccc32)CC1 &field=Emax returns 25 to 100%

GET /value?item= CC(=O)N1CCC[C@H]1C(=O)N[C@H]1CCC2(CCN(CCC(C)(C)C)CC2)c2ccccc21 &field=Emax returns 25 to 100%

GET /value?item= CC(C)CCN1CCC2(CC1)CC(C(=O)O)c1ccccc12 (stereo not drawn) &field=Emax returns < 25%

GET /value?item= CCOCC(=O)N[C@H]1CCC2(CCN(CCC(C)(C)C)CC2)c2cc(F)ccc21 &field=Emax returns 25 to 100%

GET /value?item= CC(=O)N[C@H]1CC2(CCN(CCC(C)CCC=C(C)C)CC2)c2ccccc21 (stereo partly drawn) &field=Emax returns < 25%

GET /value?item= CC(C)(C)CN1CCC2(CC1)CC(C(=O)O)c1ccccc12 (stereo not drawn) &field=Emax returns < 25%

GET /value?item= CC(=O)CCC(=O)N[C@@H]1CCC2(CCN(CCC(C)(C)C)CC2)c2ccccc21 &field=Emax returns 25 to 100%
